FYI, the data here is from paper PMC9389373.

# assay-target: PARP-1 (Homo sapiens)
# Sequence (P09874 whole entry): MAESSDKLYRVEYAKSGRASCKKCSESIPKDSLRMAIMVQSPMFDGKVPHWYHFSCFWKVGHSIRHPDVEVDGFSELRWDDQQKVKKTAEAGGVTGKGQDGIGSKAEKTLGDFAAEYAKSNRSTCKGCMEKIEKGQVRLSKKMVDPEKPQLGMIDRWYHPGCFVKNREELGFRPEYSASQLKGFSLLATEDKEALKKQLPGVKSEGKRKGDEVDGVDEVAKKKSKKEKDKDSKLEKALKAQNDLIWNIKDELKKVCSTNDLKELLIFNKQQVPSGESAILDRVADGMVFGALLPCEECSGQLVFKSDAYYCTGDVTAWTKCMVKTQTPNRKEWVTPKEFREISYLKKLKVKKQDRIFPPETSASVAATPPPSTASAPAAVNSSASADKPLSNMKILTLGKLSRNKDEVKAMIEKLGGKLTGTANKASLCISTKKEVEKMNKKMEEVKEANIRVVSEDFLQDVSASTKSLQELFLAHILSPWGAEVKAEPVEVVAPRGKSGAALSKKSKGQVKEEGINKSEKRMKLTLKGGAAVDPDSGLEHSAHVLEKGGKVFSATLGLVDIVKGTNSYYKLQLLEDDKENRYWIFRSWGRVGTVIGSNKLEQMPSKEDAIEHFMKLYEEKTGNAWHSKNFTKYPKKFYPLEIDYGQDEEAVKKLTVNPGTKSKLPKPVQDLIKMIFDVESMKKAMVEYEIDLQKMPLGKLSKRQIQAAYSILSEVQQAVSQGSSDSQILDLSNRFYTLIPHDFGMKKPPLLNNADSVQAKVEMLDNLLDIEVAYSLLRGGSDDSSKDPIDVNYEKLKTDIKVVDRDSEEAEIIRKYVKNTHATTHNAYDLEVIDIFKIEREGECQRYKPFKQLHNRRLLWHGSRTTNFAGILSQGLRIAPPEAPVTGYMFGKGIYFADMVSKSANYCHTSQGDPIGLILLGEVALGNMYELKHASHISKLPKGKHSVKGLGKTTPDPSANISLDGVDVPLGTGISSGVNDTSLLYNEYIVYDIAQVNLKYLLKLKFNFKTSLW
test-readout: IC50 (nM)

(1) O=C(COc1ccccc1C1=Nn2cnnc2SC1)NCCCCNC(=O)COc1ccccc1C1=Nn2cnnc2SC1 [8l]
(2) Cc1nnc2n1N=C(c1ccccc1OCC(=O)NCCNC(=O)COc1ccccc1C1=Nn3c(C)nnc3SC1)CS2 [8d]
INPUT: Out of 1 and 2 , name the one with the higher IC50. Respond using the label that marks the chosen record.
OUTPUT: 2
(2: 19.9 nM, 1: 6.87 nM)

* * *

# System: MCF-7
# experiment-description: MTT cytotoxicity assay, MCF-7
# Assay type: cell-based
# condition-summary: Homo sapiens, MCF7, read-out: IC50, μM MCF-7
Item-by-item account of IC50
Give the value, in units of µM, as a plain number.

[[record]]
compound = "Cc1nnc2n1N=C(c1ccc(OCC(=O)NCCCNC(=O)COc3ccc(C4=Nn5c(C)nnc5SC4)cc3)cc1)CS2"
readout_unit = "µM"
result = 7.12

[[record]]
compound = "O=C(COc1ccc(-c2cnc3ccccc3n2)cc1)NCCNC(=O)COc1ccc(-c2cnc3ccccc3n2)cc1 [10a]"
readout_unit = "µM"
result = 32

[[record]]
compound = "Cc1nnc2n1N=C(c1ccccc1OCC(=O)NCCCNC(=O)COc1ccccc1C1=Nn3c(C)nnc3SC1)CS2"
readout_unit = "µM"
result = 1.31


We now examine a further compound.
INPUT: For O=C(COc1ccccc1C1=Nn2c(nnc2-c2ccccc2)SC1)NCCCNC(=O)COc1ccccc1C1=Nn2c(nnc2-c2ccccc2)SC1 , what is its reported IC50?
OUTPUT: 11.2
